Provenance of the data: IntAct's records for PubMed 29039417

B1: BBSome complex member BBS5 (Homo sapiens), Q8N3I7 (parent)
chain: MSVLDALWEDRDVRFDLSAQQMKTRPGEVLIDCLDSIEDTKGNNGDRGRLLVTNLRILWHSLALSRVNVSVGYNCILNITTRTANSKLRGQTEALYILTKCNSTRFEFIFTNLVPGSPRLFTSVMAVHRAYETSKMYRDFKLRSALIQNKQLRLLPQEHVYDKINGVWNLSSDQGNLGTFFITNVRIVWHANMNDSFNVSIPYLQIRSIKIRDSKFGLALVIESSQQSGGYVLGFKIDPVEKLQESVKEINSLHKVYSASPIFGVDYEMEEKPQPLEALTVEQIQDDVEIDSDGHTDAFVAYFADGNKQQDREPVFSEELGLAIEKLKDGFTLQGLWEVMS
partner: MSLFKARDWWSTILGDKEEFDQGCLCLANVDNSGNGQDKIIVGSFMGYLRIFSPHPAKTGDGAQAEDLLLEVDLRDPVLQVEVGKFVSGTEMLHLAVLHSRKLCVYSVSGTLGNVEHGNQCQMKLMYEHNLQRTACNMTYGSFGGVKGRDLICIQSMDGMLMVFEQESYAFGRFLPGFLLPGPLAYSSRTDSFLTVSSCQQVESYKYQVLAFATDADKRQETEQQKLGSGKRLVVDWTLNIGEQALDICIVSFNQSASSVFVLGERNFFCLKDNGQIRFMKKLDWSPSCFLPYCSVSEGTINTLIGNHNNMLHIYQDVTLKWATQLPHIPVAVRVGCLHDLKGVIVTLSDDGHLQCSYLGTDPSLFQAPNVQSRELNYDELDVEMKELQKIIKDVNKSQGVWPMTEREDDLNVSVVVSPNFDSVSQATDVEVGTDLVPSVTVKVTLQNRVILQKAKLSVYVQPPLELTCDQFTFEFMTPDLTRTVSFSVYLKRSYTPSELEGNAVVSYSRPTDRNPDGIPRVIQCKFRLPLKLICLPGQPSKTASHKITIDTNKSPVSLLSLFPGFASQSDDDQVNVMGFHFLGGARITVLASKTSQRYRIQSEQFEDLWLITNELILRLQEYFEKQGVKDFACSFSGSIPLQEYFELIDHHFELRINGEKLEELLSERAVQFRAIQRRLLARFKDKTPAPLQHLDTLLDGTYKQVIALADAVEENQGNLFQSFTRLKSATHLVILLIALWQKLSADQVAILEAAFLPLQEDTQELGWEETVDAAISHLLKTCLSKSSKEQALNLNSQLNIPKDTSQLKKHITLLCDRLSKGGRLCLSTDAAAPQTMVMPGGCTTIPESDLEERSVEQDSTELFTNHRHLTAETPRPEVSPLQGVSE

Variants of: B1
condition_label: with pthb1_human BBS9, Q3SYG4
quantity: effect of a mutation on the interaction

Examples with their reported effect of a mutation on the interaction follow.
{"columns": ["mutant_designation", "effect of a mutation on the interaction"],
 "data": [
  ["N78E", "with no effect"],
  ["G178K", "with no effect"],
  ["I201K", "with no effect"],
  ["I109E", "with no effect"],
  ["G330A", "with no effect"]
]}

## Input Tell me the measured effect of a mutation on the interaction of A323K , please.
## Output with no effect
